Tested on: RXF 393
Test: NCI tumour cell line growth inhibition, 48 h
Activity calls are given as the source filed them. No stated cut-off is given here; in the data, active = GI50 up to about 1.1 µM and inactive = higher.
PARAMETER: GI50

Below, each entry is followed by its recorded GI50 result.
Please report GI50 for the following compound: "O=C1c2cccc(O)c2C(=O)c2c(O)cccc21"
92.5 µM (inactive)

Please report GI50 for the following compound: "OCCOCn1nncc1Cn1ncc2c(O)ncnc21"
> 100 µM (inactive)

Turning now to a further record.
Please report GI50 for the following compound: "C1CSCCSCCSCCSC1"
> 100 µM (inactive)

====

Entries and their measured GI50 follow.
Tested on: SK-MEL-5
Assay: NCI tumour cell line growth inhibition, 48 h
The source made the active and inactive calls. No stated cut-off is given here; in the data, active = GI50 up to about 1.1 µM and inactive = higher.

Below, each entry is followed by its recorded GI50 result.
Please report GI50 for the following molecule: CCN(CC)CCOc1ccc(C(O)(Cc2ccc(OC)cc2)c2ccccc2)cc1 (stereo not drawn)
13.2 µM (inactive)

Please report GI50 for the following molecule: "N/C(S)=N/N=C/c1cc(CN2CCOCC2)c(N)cn1"
35.2 µM (inactive)

Turning now to a further record.
Please report GI50 for the following molecule: "O=C(Nc1nc(C23CC4CC(CC(C4)C2)C3)cs1)c1c(O)c2ccccc2[nH]c1=O"
> 100 µM (inactive)
